Value source: PubChem BioAssay (NCI)

# System: SW-620 colon
# test-details: NCI-60 one-dose screen, 48 h
# cond: 10 µM unless noted
This is part of a sample that, as a whole, favours compounds with a hit. Of some 83,000 tested, about 20% had one in any assay. The source made the active and inactive calls. Rule for the calls: active = growth percent below 10; inactive = the rest.
I would appreciate it if you answered using one of these outcomes: active, inactive

For orientation, consider the following solved cases.
molecule | label
COc1ccc(-c2nc(-c3cc(OC)cc(OC)c3)[nH]c2-c2ccc(OC)cc2)cc1 | inactive
N#Cc1c(NN)n(C2OC(CO)C(O)C2O)c2ncnc(N)c12 (stereo unspecified) | active
CC(=O)c1c(C)nc(-c2cc(C)cc(Cl)c2)nc1-c1cccc(Oc2ccccc2)c1 | inactive
CCCCN(CCCC)CCC(=O)c1ccc(OC)c2ccccc12 | inactive
COc1ccc(NC(=O)/C=C/c2ccc(Cl)c(Cl)c2)cn1 | inactive
Cc1ccc(NC(=O)c2nc(S(C)=O)oc2-c2ccc(F)cc2)cc1Nc1nccc(-c2cccnc2)n1 (stereo unspecified) | active
CCNC(=S)N(Cc1ccccc1)Cc1ccccc1 | inactive
CCCCn1c(-c2ccc(F)cc2)nc2cc(OC)c(OC)cc2c1=O | inactive

Which outcome was assigned to `COc1cc2nccc(Oc3ccc(NC(=O)C4(C(=O)Nc5c(F)cc(F)cc5F)CC4)cc3)c2cc1Oc1ccc(N)cn1` in this test?
inactive

Which outcome was assigned to `O=C1OC(c2ccc(-c3ccccc3)cc2)=C/C1=C/c1c(Cl)cccc1Cl` in this test?
inactive

Which outcome was assigned to `O=c1c2sc3ccccc3c2nnn1-c1ccc(F)c(Cl)c1` in this test?
inactive
